Numbers sourced from the RNAGym collection of RNA variant scans (doi:10.7554/elife.90254).

B1: OR4K15 (parent)
chain: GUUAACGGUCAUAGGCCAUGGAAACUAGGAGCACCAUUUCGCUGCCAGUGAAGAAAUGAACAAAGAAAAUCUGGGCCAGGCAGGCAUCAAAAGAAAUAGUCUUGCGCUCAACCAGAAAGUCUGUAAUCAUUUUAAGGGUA

Variants of: B1
method description: self-cleavage, relative activity (ratio to wild type); higher = more cleavage; in vitro, sequencing; the parent is a self-cleaving ribozyme
Record true (1) whenever self-cleavage is at 1 or higher; record false (0) when lower.

Some entries whose results are on file:
[[record]]
construct_sequence = "GUUAACGGUCAUAGGCCGUGGAAACUAGGAGCACCAUUUCGCUGCCAGUGAAGAAAUGAACUAAGAAAAUCUGGGCCAGGCAGGCAUCAAAAGAAAUAGUCUUGCGCUCAACCAGAAAGUCUGUAAUCAUUUUAAGGGUA [A18G A62U]"
class = "true (1)"

[[record]]
construct_sequence = "GUUAACGGUCAUAGGCCAUGGAAACUAGGAGCACCAUUUCGCUGCCAGUGAAGAAAUGAACUAAGAAGAUCUGGGCCAGGCAGGCAUCAAAAGAAAUAGUCUUGCGCUCAACCAGAAAGUCUGUAAUCAUUUUAAGGGUA [A62U A68G]"
class = "true (1)"

[[record]]
construct_sequence = "GCUAACGGUCAUAGGCCAUGGAAACUAGGAGCACCAUUUCGCUGCCAGUGAAGAAAUGAACAAAGAAAAUCUGGGCCAGGCAGGCAUCAAGAGAAAUAGUCUUGCGCUCAACCAGAAAGUCUGUAAUCAUUUUAAGGGUA [U2C A91G]"
class = "true (1)"

[[record]]
construct_sequence = "GUUAACGGUCAUAGGCCAUGGAAACUAGGAGCUCCAUUUCGCUGCCGGUGAAGAAAUGAACAAAGAAAAUCUGGGCCAGGCAGGCAUCAAAAGAAAUAGUCUUGCGCUCAACCAGAAAGUCUGUAAUCAUUUUAAGGGUA [A33U A47G]"
class = "true (1)"


q: Quick check: does GUUAACGGUCAUAGGCCAUGGAAACUAGGAGCACCAUUUCGCUGCCAGAGAAGAAAUGAACAAAGAAAAUCUGGGCCUGGCAGGCAUCAAAAGAAAUAGUCUUGCGCUCAACCAGAAAGUCUGUAAUCAUUUUAAGGGUA [U49A A78U] have self-cleavage greater than or equal to 1?
a: false (0)
